All figures here come from patent US3974140A.

System: E. coli C 165
Assay: MIC, liquid medium test tube series dilution test
Type: cell-based
Conditions: E. coli C 165, 24 hours, 37°C
Criterion: MIC strictly less than 20 units/ml. Met: YES. Not met: NO.

# compound, assigned.label
rows = [
    ("CN(C(=O)CCCl)C(=O)N[C@@H](C(=O)N[C@@H]1C(=O)N2[C@@H]1SC(C)(C)[C@@H]2C(=O)O)c1ccccc1", "NO"),
    ("CCCCOC(=O)N(C)C(=O)N[C@@H](C(=O)N[C@@H]1C(=O)N2[C@@H]1SC(C)(C)[C@@H]2C(=O)O)c1ccccc1 [Example 12]", "NO"),
    ("CC(=O)N(C(=O)N[C@@H](C(=O)N[C@@H]1C(=O)N2[C@@H]1SC(C)(C)[C@@H]2C(=O)O)c1ccccc1)c1ccccc1", "NO"),
    ("CCN(CC)C(=O)N(C)C(=O)N[C@@H](C(=O)N[C@@H]1C(=O)N2[C@@H]1SC(C)(C)[C@@H]2C(=O)O)c1ccccc1", "NO"),
    ("Cc1ccc(C(=O)N(C)C(=O)N[C@@H](C(=O)N[C@@H]2C(=O)N3[C@@H]2SC(C)(C)[C@@H]3C(=O)O)c2ccccc2)cc1[N+](=O)[O-]", "YES"),
    ("CSc1ccc(C(NC(=O)N2CCNC2=O)C(=O)N[C@@H]2C(=O)N3[C@@H]2SC(C)(C)[C@@H]3C(=O)O)cc1 (some centres unmarked) [Example 55]", "NO"),
    ("CC1(C)S[C@@H]2[C@H](NC(=O)[C@H](NC(=O)N3CCCCC3=O)c3ccccc3)C(=O)N2[C@H]1C(=O)O", "NO"),
    ("CC(=O)N(C)C(=O)NC(C(=O)N[C@@H]1C(=O)N2[C@@H]1SC(C)(C)[C@@H]2C(=O)O)c1ccc(Cl)cc1 (some centres unmarked)", "NO"),
    ("CN(C(=O)N[C@@H](C(=O)N[C@@H]1C(=O)N2[C@@H]1SC(C)(C)[C@@H]2C(=O)O)c1ccccc1)C(=O)c1c(Cl)cccc1Cl", "YES"),
    ("CN(C(=O)CCC(F)(F)F)C(=O)N[C@@H](C(=O)N[C@@H]1C(=O)N2[C@@H]1SC(C)(C)[C@@H]2C(=O)O)c1ccccc1", "YES"),
    ("CN(C(=O)N[C@@H](C(=O)N[C@@H]1C(=O)N2[C@@H]1SC(C)(C)[C@@H]2C(=O)O)c1ccccc1)C(=O)C1CC=CCC1 (single isomer, unassigned)", "YES"),
    ("CN(C(=O)N[C@@H](C(=O)N[C@@H]1C(=O)N2[C@@H]1SC(C)(C)[C@@H]2C(=O)O)c1ccccc1)C(=O)N1CCCC1", "YES"),
]
